Test system: Ovcar5 monolayer (mesenchymal) cells
test.name: Ovarian cancer monolayer drug sensitivity (alamarBlue), Ovcar5
Type: cell-based
measurement.conditions: 25 cells seeded; drugs added 4 days after seeding; read-out: IC50 (μM) Ovcar5 monolayer
parameter.measured: IC50 (µM)
Give the value, in units of µM, as a plain number.

Fill blank: measured IC50 of the compound C/C(=C\c1csc(C)n1)[C@@H]1C/C=C(/C(F)(F)F)C/C=C/[C@H](C)[C@H](O)[C@@H](C)C(=O)C(C)(C)[C@@H](O)CC(=O)O1 is ____.
0.0004

----------
Test system: Ovcar3-GTL catenae
test.name: Ovcar3-GTL catena drug sensitivity / proliferation screen (alamarBlue, 384-well)
measurement.conditions: read-out: IC50 (μM) No coat, pathway-specific inhibitors; catena cells without glycocalyx coat
Assignment: determine reported IC50 for the given compounds.
The figure you give is taken to be in µM; do not add the unit.

Given C[C@@H](Oc1cc(-c2cnn(C3CCNCC3)c2)cnc1N)c1c(Cl)ccc(F)c1Cl , state its recorded IC50.
0.78

Check CN(C)C/C=C/C(=O)Nc1cc2c(Nc3ccc(F)c(Cl)c3)ncnc2cc1O[C@H]1CCOC1 too.
3.14

Again, but for C[C@]1(c2nc3c(C(N)=O)cccc3[nH]2)CCCN1
13.4

Further, for CS(=O)(=O)N1CCN(Cc2cc3nc(-c4cccc5[nH]ncc45)nc(N4CCOCC4)c3s2)CC1 ?
3.14

Follow-up item: Cn1cc(-c2ccc3nnc(Sc4ccc5ncccc5c4)n3n2)cn1
3.14

Queued: COC(=O)c1ccc2c(c1)NC(=O)/C2=C(\Nc1ccc(N(C)C(=O)CN2CCN(C)CC2)cc1)c1ccccc1
13.4

What do you have for CNC(=O)c1cc(Oc2ccc(NC(=O)Nc3ccc(Cl)c(C(F)(F)F)c3)c(F)c2)ccn1 [BAY 73-4506 (Regorafenib), Regorafenib] ?
13.4

How about this compound: Cn1cc(-c2ccc3nnc(C(F)(F)c4ccc5ncccc5c4)n3n2)cn1
3.14

Request: NCC(=O)Nc1ccc(-n2nc(C(F)(F)F)cc2-c2ccc3c(ccc4ccccc43)c2)cc1
3.14

// repeat for O=C(/C=C/c1ccc(CN(CCO)CCc2c[nH]c3ccccc23)cc1)NO and report
0.01

Reference source: patent US20150030583A1
